Taken from the Immune Epitope Database (IEDB).

- assayed system: HLA-B*35:01
- run description: IEDB peptide-MHC binding, purified MHC/competitive/radioactivity; bounds were set here for any values at or beyond the usual limits of such assays
- condition info: source organism: Hepatitis B virus
measured endpoint: IC50 (nM)
Answer format: numeric, nM implied, no suffix.

Which value of IC50 has been reported for "TPARVTGGVF" in the records?
71.6

----------
- assayed system: HLA-A*68:02
- run description: IEDB peptide-MHC binding, purified MHC/competitive/radioactivity; bounds were set here for any values at or beyond the usual limits of such assays
- condition info: source organism: Hepatitis B virus
measured endpoint: IC50 (nM)
Enter your answer as a number in nM; do not include the unit.

Could you share which IC50 value was measured for "YMDDVVLGV" ?
422
